- experimental-system: Adenosine A2a receptor (Homo sapiens, UniProt P29274)
- Construct: expressed in transfected cells; host or cells: CHO cell membranes
- Sequence (P29274 whole entry): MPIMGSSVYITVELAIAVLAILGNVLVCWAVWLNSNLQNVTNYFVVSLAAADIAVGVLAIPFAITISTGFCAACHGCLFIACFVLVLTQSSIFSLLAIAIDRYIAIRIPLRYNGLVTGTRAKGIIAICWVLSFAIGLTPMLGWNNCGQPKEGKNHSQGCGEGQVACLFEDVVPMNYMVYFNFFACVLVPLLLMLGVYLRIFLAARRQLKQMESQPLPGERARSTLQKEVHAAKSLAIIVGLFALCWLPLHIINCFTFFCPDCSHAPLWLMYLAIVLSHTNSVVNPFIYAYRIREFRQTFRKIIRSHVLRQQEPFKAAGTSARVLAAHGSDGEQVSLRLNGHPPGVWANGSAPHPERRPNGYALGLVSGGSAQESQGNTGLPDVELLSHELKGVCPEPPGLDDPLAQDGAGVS
- assay-protocol: Adenosine receptor TR-FRET binding assay, A2a
- measurement-setup: Table 8; displacement of 100 nM CA200645, CHO cell membranes, Cheng and Prusoff
// NB: equality with 20 nM counts as Not met; only Ki strictly below is Met

Asked: is_below(Ki, 20 nM) for `Cc1cccnc1CNC(=O)c1nnc(-c2ccco2)nc1N` ?
Given back: Met

Asked: Just wondering, is Ki of `Nc1nc(-c2cccc(F)c2)ncc1C(=O)NCc1cccc(F)c1` below 20 nM?
Given back: Not met

Asked: Field: below-cutoff. Rule: recorded Ki strictly less than 20 nM. Subject: `Nc1nc(-c2cccc(F)c2)ncc1C(=O)NCc1ccccc1`
Given back: Not met

Asked: Just wondering, is Ki of `Nc1nc(-c2cccc(F)c2)ncc1C(=O)NCc1ccc(F)cc1` below 20 nM?
Given back: Not met

Asked: Lab note: Ki threshold 20 nM. Does this compound come in strictly under it? `Nc1nc(-c2ccco2)ncc1C(=O)NC1Cc2ccccc2C1`
Given back: Met
